# Test system: Escherichia coli
# assay text: Antibacterial activity against Escherichia coli ATCC25922 assessed as reduction in microbial growth incubated for 22 to 24 hrs by CLSI based broth microdilution method
# Type: functional
# run conditions: time 22-24 hrs
measure name: MIC (µg/mL)
Note: unit µg/mL is implicit; provide only the numeric part.

[[record]]
compound_smiles = "COC(=O)[C@H](CCCNC(=N)N)NC(=O)[C@H](CCCNC(=N)N)NC(=O)[C@H](CCCNC(=N)N)NC(=O)COc1ccc(S(=O)(=O)c2ccc(OC/C=C(/C)CCC=C(C)C)cc2)cc1"
meas_value = 6.25

[[record]]
compound_smiles = "CC(C)=CCOc1ccc(S(=O)(=O)c2ccc(OCCOCCNC(=N)N)cc2)cc1"
meas_value = 50


# next compound below
Can you share its MIC? I mean this compound: CC(C)=CCOc1ccc(S(=O)(=O)c2ccc(OCCCNC(=N)N)cc2)cc1 50
